# assay.remarks: in vivo
# conditions: mouse, ip, intraperitoneal, hydrochloride, male ddy mice
Entries whose LD50 is below 200 mg/kg take 1; entries at or above 200 mg/kg take 0.

Solved entries:
CCN(CC)CCCn1nc(N)c2cc(I)ccc21 [(27)]    0
CCN(CC)CCCNc1nn(CCCN(CC)CC)c2cc(O)ccc12 [(121)]    0
CC(CCn1nc(NCCCN2CCCCC2)c2cc(O)ccc21)N(C)C (stereo not shown) [(139)]    0
CCN(CC)CCCn1nc(N)c2c(Cl)cccc21 [(1)]    1
CC1CCCCN1CCCNc1n[nH]c2ccc(Cl)cc12 (stereo not shown) [(59)]    0

Task: Consider CC(CCNc1n[nH]c2ccc(O)cc12)N1CCCCC1 (stereo not shown) [(79)] . Does its LD50 lie strictly below 200 mg/kg?
Result: 1

====

Quick reference: inhibition in vivo at 100 mg/kg of the listed items.
# Tested on: Carrageenin edema in rat's paw
# assay.remarks: Carrageenin Edema Test in Rat's Paw (anti-inflammatory activity, Table 1)
# Format: in vivo
# conditions: 100 mg/kg oral, hydrochloride, rat
Express the result in % but write the number alone.

Examples from the recorded data:
Clc1ccc2c(c1)c(NCCCN1CCCCC1)nn2CCCN1CCCCC1    29
Nc1nn(CCN2CCOCC2)c2ccccc12    48
CCN(CC)CCCNc1n[nH]c2c(O)cccc12    56
Clc1ccc2c(c1)c(NCCCN1CCC(Cl)CC1)nn2CCCN1CCOCC1    30
Clc1ccc2[nH]nc(NCCCN3CCCC3)c2c1    36
Clc1ccc2[nH]nc(NCCCN3CCOCC3)c2c1    46

Task: Would you kindly share the measured inhibition in vivo at 100 mg/kg for CCN(CC)CCCn1nc(N)c2ccc(Cl)cc21 ?
Result: 54

Task: Would you kindly share the measured inhibition in vivo at 100 mg/kg for CCN(CC)CCCNc1nn(CCCN(CC)CC)c2cccc(Cl)c12 ?
Result: 30

Task: Would you kindly share the measured inhibition in vivo at 100 mg/kg for CC1CCCC(C)N1CCCNc1n[nH]c2ccc(O)cc12 (stereo not shown) ?
Result: 30

Task: Would you kindly share the measured inhibition in vivo at 100 mg/kg for Oc1ccc2c(c1)c(NCCCCCCN1CCCCC1)nn2CCCN1CCCCC1 ?
Result: 21

====

# Test system: Carrageenin edema in rat's paw
# assay.remarks: Carrageenin Edema Test in Rat's Paw (anti-inflammatory activity, Table 1)
# Format: in vivo
# conditions: 100 mg/kg oral, hydrochloride, rat
Label T when inhibition in vivo at 100 mg/kg is at or above 30%; anything below gets F.

Task: Say whether CCN(CC)CCCNc1n[nH]c2cc(O)ccc12 shows inhibition in vivo at 100 mg/kg of 30% or more.
Result: T

Task: Say whether Nc1nn(CCCN2CCCCC2)c2ccc(O)cc12 shows inhibition in vivo at 100 mg/kg of 30% or more.
Result: T

Task: Say whether Nc1nn(CCCCCCN2CCCCC2)c2ccc(Cl)cc12 shows inhibition in vivo at 100 mg/kg of 30% or more.
Result: F

Task: Say whether Oc1ccc2[nH]nc(NCCCN3CCCC3)c2c1 shows inhibition in vivo at 100 mg/kg of 30% or more.
Result: T

Task: Say whether CCN(CC)C(CCNc1nn(CCC(C)N(C)C)c2ccc(O)cc12)CC(C)C (stereo not drawn) shows inhibition in vivo at 100 mg/kg of 30% or more.
Result: F

Task: Say whether ClC1CCN(CCCNc2nn(CCCN3CCOCC3)c3ccccc23)CC1 shows inhibition in vivo at 100 mg/kg of 30% or more.
Result: F
